test-summary: Intrinsic clearance and half-life in human liver mitochondrial fraction
Type: in vitro ADME
condition-description: 0.5 mg/mL human liver mitochondrial fraction; 1 μM test compounds, 5 μM controls; mean of replicates
experimental-endpoint: half-life at 5 μM (min)
Give a bare numeral; the unit min is implied.

What value of half-life at 5 μM has been reported for the following compound? NCCc1c[nH]c2ccc(O)cc12 [Serotonin, reference compound]
9

Quick one: half-life at 5 μM for NCc1ccccc1 [Benzylamine, reference compound] ?
22.8
